Tested on: KU1919.1
assay_summary: Cell Titer Glo (CTG) proliferation assay, KU1919
Format: cell-based
run_conditions: Homo sapiens, KU-19-19; KU1919.1 cells, 72.0 hrs.; read-out: AVE CTG Proliferation KU1919.1 72.0 hrs.
pIC50: −log10 of the molar value.
Please go through the items and note down their pIC50.

>>> experimental_value("CCc1cccc(-c2cnc(C(=O)N3CCN(CC4CCN(CC(=O)NCCNC[C@@H](C(=O)N5CCN(c6ncnc7c6[C@H](C)C[C@H]7O)CC5)c5ccc(Cl)cc5)CC4)CC3)c(N)c2)c1")
"5.30 to 6.00"
>>> experimental_value("NC1(C(=O)N[C@@H](CCN2CCC(OC3CCN(C(=O)c4cccc(C5CCCN(C(=O)CNCc6ccc(F)cc6F)C5)c4F)CC3)CC2)c2ccc(Cl)cc2)CCN(c2ncnc3[nH]ccc23)CC1 (stereo partly drawn)")
"5.30 to 6.00"

// pIC50 lookup, key: NC1(C(=O)N[C@@H](CCOCCN2CCC(OC3CCN(C(=O)[C@H](NC(=O)c4cccc(C5CCCN(C(=O)C67CC(C6)C7)C5)c4)C4CCCCC4)CC3)CC2)c2ccc(Cl)cc2)CCN(c2ncnc3[nH]ccc23)CC1 (stereo partly drawn)
5.30 to 6.00

* * *

Tested on: KU1919.1
assay_summary: Cell Titer Glo (CTG) proliferation assay, KU1919
Format: cell-based
run_conditions: Homo sapiens, KU-19-19; KU1919.1 cells, 72.0 hrs.; read-out: AVE CTG Proliferation KU1919.1 72.0 hrs.
test_readout: IC50

Consider the reported IC50 for these molecules:
>>> experimental_value("NC1(C(=O)N[C@@H](CCN2CCC(OC3CCN(C(=O)[C@H](NC(=O)c4cc(C5CCCN(C(=O)C6CC6)C5)ccc4F)C4CCCCC4)CC3)CC2)c2ccc(Cl)cc2)CCN(c2ncnc3[nH]ccc23)CC1 (stereo partly drawn)")
"1 to 5 µM"
>>> experimental_value("NC1(C(=O)N[C@@H](CCN2CCN(C(=O)CN3CCC(OC4CCN(C(=O)[C@H](NC(=O)c5ccc(C6CN(C(=O)CNCc7ccc(F)cc7F)C6)cc5)C5CCCCC5)CC4)CC3)CC2)c2ccc(Cl)cc2)CCN(c2ncnc3[nH]ccc23)CC1")
"1 to 5 µM"
>>> experimental_value("NC1(C(=O)N[C@@H](CCN2CCN(C(=O)CN3CCC(OC4CCN(C(=O)c5cccc(C6CCCN(C(=O)CNCc7ccc(F)cc7F)C6)c5)CC4)CC3)CC2)c2ccc(Cl)cc2)CCN(c2ncnc3[nH]ccc23)CC1 (stereo partly drawn)")
"5 to 10 µM"
>>> experimental_value("CCc1cccc(-c2cnc(C(=O)N3CCC(CN4CCN(CC(=O)NCCNC[C@@H](C(=O)N5CCN(c6ncnc7c6[C@H](C)C[C@H]7O)CC5)c5ccc(Cl)cc5)CC4)CC3)c(NC(=O)CN3CCOCC3)c2)c1")
"5 to 10 µM"
>>> experimental_value("NC1(C(=O)N[C@@H](CCN2CCC(OC3CCN(C(=O)[C@H](NC(=O)c4cccc(C5CN(C(=O)C6CC6)C5)c4)C4CCCCC4)CC3)CC2)c2ccc(Cl)cc2)CCN(c2ncnc3[nH]ccc23)CC1")
"1 to 5 µM"

Batch lookup, IC50 per entry.
1. NC1(C(=O)N[C@@H](CCN2CCC(OC3CCN(C(=O)[C@H](NC(=O)c4cccc(C5CCN(C(=O)C6CC6)CC5)c4F)C4CCCCC4)CC3)CC2)c2ccc(Cl)cc2)CCN(c2ncnc3[nH]ccc23)CC1
2. C[C@@H]1C[C@@H](O)c2ncnc(N3CCN(C(=O)[C@H](CNCCNC(=O)CN4CCC(CN5CCN(C(=O)[C@H](NC(=O)c6cccc(C7CCCN(C(=O)CNCc8ccc(F)cc8F)C7)c6)C6CCCCC6)CC5)CC4)c4ccc(Cl)cc4)CC3)c21 (stereo partly drawn)
3. NC1(C(=O)N[C@@H](CCN2CCN(C(=O)CN3CCC(OC4CCN(C(=O)[C@H](NC(=O)c5cccc(C6CN(C(=O)C7CC7)C6)c5)C5CCCCC5)CC4)CC3)CC2)c2ccc(Cl)cc2)CCN(c2ncnc3[nH]ccc23)CC1
4. CC(C)(C)OC(=O)N[C@@H](C(=O)N1CCC(OC2CCN(CC(=O)N3CCN(CC[C@H](NC(=O)C4(N)CCN(c5ncnc6[nH]ccc56)CC4)c4ccc(Cl)cc4)CC3)CC2)CC1)C1CCCCC1

1 to 5 µM
1 to 5 µM
1 to 5 µM
1 to 5 µM

Source listed as patent US20250171465A1.
